Exercise: for every item that follows, state its recorded Kd.
Target: UniProtKB P07814
Sequence (P07814 1007-1512 limits assumed): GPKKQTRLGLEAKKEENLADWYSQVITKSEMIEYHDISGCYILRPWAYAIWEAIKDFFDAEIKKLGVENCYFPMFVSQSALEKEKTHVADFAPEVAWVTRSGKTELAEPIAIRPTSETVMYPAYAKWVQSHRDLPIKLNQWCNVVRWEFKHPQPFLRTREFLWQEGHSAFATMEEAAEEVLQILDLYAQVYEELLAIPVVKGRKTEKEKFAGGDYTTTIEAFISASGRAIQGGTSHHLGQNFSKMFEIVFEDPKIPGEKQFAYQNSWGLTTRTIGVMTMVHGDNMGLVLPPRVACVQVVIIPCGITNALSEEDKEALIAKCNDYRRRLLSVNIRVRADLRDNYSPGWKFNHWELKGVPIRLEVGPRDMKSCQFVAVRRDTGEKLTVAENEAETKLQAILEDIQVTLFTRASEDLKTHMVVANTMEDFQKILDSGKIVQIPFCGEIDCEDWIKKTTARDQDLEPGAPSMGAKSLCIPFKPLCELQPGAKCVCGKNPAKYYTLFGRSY
Test: TR-FRET ligand displacement assay with tracer MAT379, HsProRS
Format: binding
Conditions: no proline, no ATP; read-out: HsProRS (KD [nM]) −
The response must be a number in nM with no trailing unit.

So what does the record say about Kd for CC(C)(C)OC(=O)N[C@H]1CC[C@@H](C(=O)Nc2nccnc2C(=O)NC2Cc3ccccc3C2)CC1 [Compound 6] ?
56.8

Any idea what its Kd is? The molecule is O=C(NC1Cc2ccccc2C1)c1nccnc1NC(=O)C1(O)CCCCC1 [Compound 15]
2700

Entry under review: O=C(CCCCCNC(=O)Nc1ccccc1)NCC1CCN(C(=O)Nc2nccnc2C(=O)NC2Cc3ccccc3C2)CC1 [MAT516] . Reported Kd?
402

Any idea what Kd was measured for O=C(C[C@H]1NCCC[C@@H]1O)Cn1cnc2cc(Br)c(Cl)cc2c1=O [halofuginone(1), halofuginone, reference compound] ?
1160

Consider the molecule shown here: O=C(NC1Cc2ccccc2C1)c1nccnc1NC(=O)N1CCC(CO)CC1 [Compound 11] What is its recorded Kd?
265

----------
Molecular target: PfcProRS (Plasmodium falciparum)
Sequence (Q8I5R7 whole entry): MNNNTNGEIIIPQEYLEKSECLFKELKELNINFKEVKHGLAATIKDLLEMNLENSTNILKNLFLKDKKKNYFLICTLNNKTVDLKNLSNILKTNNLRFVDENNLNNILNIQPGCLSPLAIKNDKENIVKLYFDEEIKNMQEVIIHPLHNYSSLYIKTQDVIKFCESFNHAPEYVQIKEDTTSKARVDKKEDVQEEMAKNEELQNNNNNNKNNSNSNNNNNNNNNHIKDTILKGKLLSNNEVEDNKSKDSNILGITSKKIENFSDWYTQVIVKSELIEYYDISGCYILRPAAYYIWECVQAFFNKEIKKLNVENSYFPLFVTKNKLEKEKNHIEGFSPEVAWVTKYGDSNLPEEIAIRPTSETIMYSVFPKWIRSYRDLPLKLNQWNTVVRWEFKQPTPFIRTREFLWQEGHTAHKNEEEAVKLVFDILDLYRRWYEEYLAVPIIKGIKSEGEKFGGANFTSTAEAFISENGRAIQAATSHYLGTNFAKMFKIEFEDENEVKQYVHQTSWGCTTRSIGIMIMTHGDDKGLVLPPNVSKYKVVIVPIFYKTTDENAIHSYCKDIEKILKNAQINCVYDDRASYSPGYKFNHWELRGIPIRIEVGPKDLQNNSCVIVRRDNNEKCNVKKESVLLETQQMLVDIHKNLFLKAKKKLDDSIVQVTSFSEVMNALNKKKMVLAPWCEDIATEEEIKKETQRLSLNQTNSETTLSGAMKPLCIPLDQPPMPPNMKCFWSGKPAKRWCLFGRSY
Assay: TR-FRET ligand displacement assay with tracer MAT379, PfcProRS
Format: binding
Details: read-out: PfcProRS (KD [nM]) −; no proline, no ATP
measurement-kind: Kd (nM)
Form entry: value (nM) — number only.

What Kd value was documented for this compound, "CC(C)(C)OC(=O)NCCCCCC(=O)NCCCCCC(=O)NC1CCN(C(=O)Nc2nccnc2C(=O)NC2Cc3ccccc3C2)CC1" ?
292

----------
Would you mind telling me the reported Kd of each entry?
Molecular target: PfcProRS (Plasmodium falciparum)
Test: TR-FRET ligand displacement assay with tracer MAT379, PfcProRS
Assay type: binding
Conditions: no proline, no ATP; read-out: PfcProRS (KD [nM]) −
Structures can show the parent of a compound that is named as a salt.
Give a bare numeral; the unit nM is implied.

Query (compound): "O=C(CCCCCNC(=S)Nc1ccccc1)NCC1CCN(C(=O)Nc2nccnc2C(=O)NC2Cc3ccccc3C2)CC1" ; field requested: Kd
95.6

Param item = "O=C(NC1Cc2ccccc2C1)c1nccnc1NC(=O)C1CCC1" ; retrieve measured Kd.
1260

Requested field: Kd. Item: "O=C(NC1Cc2ccccc2C1)c1nccnc1NC(=O)N1CCC(CO)CC1"
299

Report Kd for NCCCCCC(=O)NC1CCN(C(=O)Nc2nccnc2C(=O)NC2Cc3ccccc3C2)CC1 [Compound 42, dihydrochloride] please.
433

Given the compound "NCCCCCC(=O)NCCCCCC(=O)NC1CCN(C(=O)Nc2nccnc2C(=O)NC2Cc3ccccc3C2)CC1" , what is its reported Kd?
2280

Sample "CC(C)(C)OC(=O)NCCCCCC(=O)NC1CCN(C(=O)Nc2nccnc2C(=O)NC2Cc3ccccc3C2)CC1" — what was its Kd?
227

Need Kd, item NCCCCCC(=O)NCC1CCN(C(=O)Nc2nccnc2C(=O)NC2Cc3ccccc3C2)CC1 [Compound 44, dihydrochloride]
321

Which Kd value belongs to O=C(NS(=O)(=O)N1CCN(C(=O)Nc2nccnc2C(=O)NC2Cc3ccccc3C2)CC1)O[C@H]1CCCN[C@@H]1CC(O)Cn1cnc2cc(Br)c(Cl)cc2c1=O (stereo partly drawn) [MAT583, 2,2,2-trifluoroacetate] ?
187
